Entries and their measured viability at 1 µM follow.
assay: in vitro; conditions: human
Where a name gives a salt, the structure may show the parent alone.
# number only, unit % dropped from output

# annotated cases, reported viability at 1 µM shown
Query :: What value of measured viability at 1 µM is listed for Cc1c(O)cccc1C(=O)N[C@@H](CSc1ccccc1)[C@H](O)CN1C[C@H]2CCCC[C@H]2C[C@H]1C(=O)NC(C)(C)C [Nelfinavir mesylate hydrate] ?
Result :: 26

Query :: What value of measured viability at 1 µM is listed for CC(=O)OCC(CCn1cnc2cnc(N)nc21)COC(C)=O ?
Result :: 7

Query :: What value of measured viability at 1 µM is listed for Oc1ccc(C2CNCCc3c2cc(O)c(O)c3Cl)cc1 (stereo not shown) [Fenoldopam bromide] ?
Result :: 73

New cases:
Query :: What value of measured viability at 1 µM is listed for Nc1ccn([C@H]2CC[C@@H](CO)O2)c(=O)n1 ?
Result :: 7

* * *

Entries and their measured IC50 follow.
system: ecotropic pseudo-typed lentiviral particles (luciferase) in PM1-mCat1 cells; assay: Luciferase-based viral integration assay using PM1-mCat1 cells; conditions: Human immunodeficiency virus 1, read-out: IC50 (in µM), viral integration assay

# annotated cases, reported IC50 shown
Query :: What value of measured IC50 is listed for O=S(=O)(c1ccc(Oc2ncnc3scc(-c4ccc(F)cc4)c23)cc1)N1CCOCC1 ?
Result :: 6.91 µM

Query :: What value of measured IC50 is listed for COc1ccc(CC(=O)Nc2ccc(OC)cc2)cc1 ?
Result :: 6.46 µM

Query :: What value of measured IC50 is listed for O=c1[nH]c(CSc2nnc(C3CC3)o2)nc2scc(-c3ccco3)c12 ?
Result :: 2.28 µM

Query :: What value of measured IC50 is listed for c1ccc(CCNc2nc(CN3CCOCC3)nc3scc(-c4cccs4)c23)nc1 ?
Result :: > 10 µM

New cases:
Query :: What value of measured IC50 is listed for c1csc(-c2csc3nc(CN4CCOCC4)nc(N4CCCC4)c23)c1 ?
Result :: 3.97 µM

* * *

biological target: eGFP-encoding lentiviral vectors (mutant reverse transcriptase); test: Flow-cytometry based inhibitor analysis, eGFP vector; conditions: Figure S2, read-out: IC50 of the AZT-resistant mutant, FC-based analysis
observationType: pIC50
Here pIC50 is given on a logarithmic scale as minus log10 of the concentration in mol/L.

Query :: What value of measured pIC50 is listed for Nc1nc2c(ncn2CCOCP(=O)(O)O)c(=O)[nH]1 [PMEG hydrate] ?
Result :: 5.92

* * *

tested on: ecotropic pseudo-typed lentiviral particles (luciferase) in PM1-mCat1 cells; experiment: Luciferase-based viral integration assay using PM1-mCat1 cells; details: Human immunodeficiency virus 1, read-out: IC50 (in µM), viral integration assay
Entries and their measured IC50 follow.
# number only, unit µM dropped from output

Query :: What value of measured IC50 is listed for c1ccc(CNc2nc(CN3CCOCC3)nc3scc(-c4cccs4)c23)cc1 ?
Result :: 4.67

Query :: What value of measured IC50 is listed for CCc1ccc(-c2csc(Cn3c(CN4CCOCC4)nc4ccccc4c3=O)n2)cc1 ?
Result :: 5.91

Query :: What value of measured IC50 is listed for COc1ccc(NS(=O)(=O)c2cccc(C(=O)NCC(c3ccc(OC)cc3)N3CCCCC3)c2)cc1 (stereo not drawn) ?
Result :: 2.79

Turning to the following compound.
Query :: What value of measured IC50 is listed for CCOc1ccc(C(=O)Nc2cc(C)ccc2F)cc1 ?
Result :: 1.1
